Hello, the source for this data is PubChem BioAssay, in case you need it.

Molecular target: Torsin-1A (Homo sapiens) (UniProt O14656)
Sequence (O14656 whole entry, looked up): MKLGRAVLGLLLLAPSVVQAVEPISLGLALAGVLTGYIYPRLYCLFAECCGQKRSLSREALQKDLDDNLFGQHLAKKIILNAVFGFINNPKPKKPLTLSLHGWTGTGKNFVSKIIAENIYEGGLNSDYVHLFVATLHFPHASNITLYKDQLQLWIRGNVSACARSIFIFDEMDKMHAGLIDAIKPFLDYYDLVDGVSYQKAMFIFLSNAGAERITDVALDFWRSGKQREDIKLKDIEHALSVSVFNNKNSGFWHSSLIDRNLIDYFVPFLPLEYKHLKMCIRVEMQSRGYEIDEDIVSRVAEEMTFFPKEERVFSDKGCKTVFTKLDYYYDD
Test: torsin A binders from cell lysate, primary screen, small-molecule microarray, wild-type, 635/667 nm (AID 1149)
Settings: COS7 hTOR1A-WT lysate, 635 nm fluorescence, higher = more signal
propertyLabel: composite z-score
// return a plain number; no unit text

compound	composite z-score
O=C1C2C=CC(C(O)C3CCCCC3)N(Nc3ccccc3F)C2C(=O)N1c1ccccc1 (configuration not stated)	0.258

Reported composite z-score for Torsin-1A (Homo sapiens) (UniProt O14656), given O=C1C2C=CC(C(O)C3CC=CCC3)N(Nc3ccc([N+](=O)[O-])cc3)C2C(=O)N1c1ccccc1 (configuration not stated) ?
0.26

// next record `C=C(COC)C(=O)CC[C@H](OC(C)=O)c1ccc(CO)o1`
-0.675

// next record `CC(C)C[C@@H]1NC(=O)[C@@H]2C[C@H](C(=O)NCCCCCNC(=O)CS)[C@H](c3ccc(O)cc3)N2C1=O`
1.87

// next record `C=C[C@@H](CO)NS(=O)(=O)c1ccc(Br)cc1`
-0.0176

// next record `COc1cc(Cc2cc3c(c(-c4ccccc4)n2)[Si](C(C)C)(C(C)C)OC3)cc(OC)c1OC`
-0.226

// next record `[N-]=[N+]=Nc1ccccc1C[C@]1(C(=O)N2CCCCC2)N=C(c2ccc(OCCCO)cc2)O[C@H]1c1ccccc1`
0.351

// next record `C=C(COC)C(=O)CC[C@@H](OC(=O)c1ccccc1-c1ccccc1C(=O)O)c1ccccc1OCCO`
1.49

// next record `O=C(O)C1=CC[C@H]2C(=O)N(c3ccccc3)C(=O)[C@@H]12`
1

// next record `CC(C)N1C(=O)[C@@]2(Cc3ccccc31)c1ccccc1C(=O)N(Cc1ccccc1)[C@H]2c1ccc(CO)cc1`
0.291

// next record `C=CCOC(=O)[C@H]1[C@@H]2C(=O)O[C@@H](c3ccccc3)[C@@H](c3ccccc3)N2[C@@H](c2ccc(OCCOC(=O)[C@@H]3C[C@@H]4C(=O)N[C@@H](Cc5ccccc5)C(=O)N4[C@@H]3c3ccc(O)cc3)cc2)[C@]12C(=O)Nc1ccc(I)cc12`
-0.305

// next record COc1ccc(NN2C(C(O)c3ccc(F)cc3)C=CC3C(=O)N(C4CCCCC4)C(=O)C32)cc1 (configuration not stated)
0.638

// next record `CCCCC(=C=CC[C@@H](O)c1ccc(OCCO)cc1)CCO`
0.112

// next record O=C1NC(=O)C2C1C=CC(C(O)C1CCCCC1)N2Nc1ccccn1 (configuration not stated)
0.254

// next record `CC[C@@H]1C=C(C(=O)O)[C@H](c2cccc(Cl)c2)N1S(=O)(=O)c1ccc(C)cc1`
1.65

// next record `CO[C@H]1O[C@H](CO)[C@@H](OC(=O)CCc2ccccc2)[C@@H]2OC(=O)[C@@H](Cc3ccc4ccccc4c3)C/C=C/C[C@H](Cc3ccc4ccccc4c3)C(=O)O[C@@H]12`
-1.32

// next record CN1C(=O)C2C=CC(C(O)c3ccc([N+](=O)[O-])cc3)N(Nc3ccccc3)C2C1=O (configuration not stated)
0.0754
